system: RAW264.7 cells; test: Cytokine (TNFα) response of mouse macrophage cell line; Table 2 'Murine'; type: cell-based; design: unit not given here; conditions: NR = no response
Overview of reported Maximum cytokine response Murine across a group of molecules:
Reported metric: Maximum cytokine response Murine

{"Molecule": "Cc1cc(C)cc(C(=O)OCC2OC(OC3OC(COC(=O)c4cc(C)cc(C)c4)C(O)C(O)C3O)C(O)C(O)C2O)c1 (centres unmarked)", "Reported metric": "Maximum cytokine response Murine", "Result": 3}
{"Molecule": "CC(C)(C)c1cc(C(=O)OCC2OC(OC3OC(COC(=O)c4cc(C(C)(C)C)cc(C(C)(C)C)c4O)C(O)C(O)C3O)C(O)C(O)C2O)c(O)c(C(C)(C)C)c1 (centres unmarked)", "Reported metric": "Maximum cytokine response Murine", "Result": 3}
{"Molecule": "O=C(NC[C@H]1O[C@H](O[C@H]2O[C@H](CNC(=O)c3ccccc3C(F)(F)F)[C@@H](O)[C@H](O)[C@H]2O)[C@H](O)[C@@H](O)[C@@H]1O)c1ccccc1C(F)(F)F", "Reported metric": "Maximum cytokine response Murine", "Result": 2}
{"Molecule": "O=C(OC[C@H]1O[C@H](O[C@H]2O[C@H](COC(=O)c3ccc(-c4ccccc4)cc3O)[C@@H](O)[C@H](O)[C@H]2O)[C@H](O)[C@@H](O)[C@@H]1O)c1ccc(-c2ccccc2)cc1O", "Reported metric": "Maximum cytokine response Murine", "Result": 3}
